- target system: T1, mouse programmed cell death protein 1 Fc fusion protein (mPD-1-Fc), mPD-1 C60S (aa 25-167) (Mus musculus, UniProt Q02242, stabilised)
- T1 construct: not cleaved; source: Expi293F, purified (Protein A, SEC; dimeric fraction); not shown: Fc (human), C-terminal, kept
- experimental protocol: SPR; Carterra LSA; Fab from the ammonium sulfate precipitate of the culture supernatant immobilised on a NiHC200M chip; hPD-1 (1-1024 nM) or mPD-1-Fc (4-1024 nM) as analyte, fourfold dilution series, no regeneration; HBS-EP pH 7.4, 25 °C; medians over the spots of a construct, KD = koff/kon
- study conditions: one partner purified
Labelling field: enter 1 (yes) if recorded koff is less than 0.0006 s⁻¹. Enter 0 (no) if it equals or exceeds that cut-off.

toripalimab Fab L.V99H (Fab, V domains shown, as the heavy chain of Sm3; light chain of Sm3 with this change; numbers count from the chain's first residue; source: Brevibacillus, culture supernatant (ammonium sulfate precipitate); not shown: 6xHis, C-terminal, kept; 6xHN, C-terminal, kept) VH: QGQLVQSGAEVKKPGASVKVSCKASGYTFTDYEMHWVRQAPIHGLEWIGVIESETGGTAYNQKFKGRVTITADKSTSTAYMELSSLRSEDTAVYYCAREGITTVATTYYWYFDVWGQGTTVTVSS VL: DVVMTQSPLSLPVTLGQPASISCRSSQSIVHSNGNTYLEWYLQKPGQSPQLLIYKVSNRFSGVPDRFSGSGSGTDFTLKISRVEAEDVGVYYCFQGSHHPLTFGQGTKLEIK : 0 (no)
toripalimab Fab H.T55Y (Fab, V domains shown, heavy chain of Sm3 with this change; numbers count from the chain's first residue; as the light chain of Sm3; source: Brevibacillus, culture supernatant (ammonium sulfate precipitate); not shown: 6xHis, C-terminal, kept; 6xHN, C-terminal, kept) VH: QGQLVQSGAEVKKPGASVKVSCKASGYTFTDYEMHWVRQAPIHGLEWIGVIESEYGGTAYNQKFKGRVTITADKSTSTAYMELSSLRSEDTAVYYCAREGITTVATTYYWYFDVWGQGTTVTVSS VL: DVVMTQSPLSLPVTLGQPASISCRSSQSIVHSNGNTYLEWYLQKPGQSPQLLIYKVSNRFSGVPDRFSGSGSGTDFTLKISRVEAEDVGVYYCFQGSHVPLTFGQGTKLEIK : 0 (no)
toripalimab Fab L.V99W (Fab, V domains shown, as the heavy chain of Sm3; light chain of Sm3 with this change; numbers count from the chain's first residue; source: Brevibacillus, culture supernatant (ammonium sulfate precipitate); not shown: 6xHis, C-terminal, kept; 6xHN, C-terminal, kept) VH: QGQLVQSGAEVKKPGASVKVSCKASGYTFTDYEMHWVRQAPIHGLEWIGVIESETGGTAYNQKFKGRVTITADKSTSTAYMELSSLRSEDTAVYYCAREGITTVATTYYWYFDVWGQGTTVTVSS VL: DVVMTQSPLSLPVTLGQPASISCRSSQSIVHSNGNTYLEWYLQKPGQSPQLLIYKVSNRFSGVPDRFSGSGSGTDFTLKISRVEAEDVGVYYCFQGSHWPLTFGQGTKLEIK : 0 (no)
toripalimab Fab L.L101I (Fab, V domains shown, as the heavy chain of Sm3; light chain of Sm3 with this change; numbers count from the chain's first residue; source: Brevibacillus, culture supernatant (ammonium sulfate precipitate); not shown: 6xHis, C-terminal, kept; 6xHN, C-terminal, kept) VH: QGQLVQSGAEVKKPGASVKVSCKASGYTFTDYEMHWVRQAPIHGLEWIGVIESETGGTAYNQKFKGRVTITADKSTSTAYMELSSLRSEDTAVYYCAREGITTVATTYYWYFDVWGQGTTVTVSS VL: DVVMTQSPLSLPVTLGQPASISCRSSQSIVHSNGNTYLEWYLQKPGQSPQLLIYKVSNRFSGVPDRFSGSGSGTDFTLKISRVEAEDVGVYYCFQGSHVPITFGQGTKLEIK : 1 (yes)
toripalimab Fab L.L101G (Fab, V domains shown, as the heavy chain of Sm3; light chain of Sm3 with this change; numbers count from the chain's first residue; source: Brevibacillus, culture supernatant (ammonium sulfate precipitate); not shown: 6xHis, C-terminal, kept; 6xHN, C-terminal, kept) VH: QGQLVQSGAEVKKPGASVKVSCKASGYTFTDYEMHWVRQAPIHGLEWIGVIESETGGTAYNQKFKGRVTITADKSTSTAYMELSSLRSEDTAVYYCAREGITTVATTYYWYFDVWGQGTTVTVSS VL: DVVMTQSPLSLPVTLGQPASISCRSSQSIVHSNGNTYLEWYLQKPGQSPQLLIYKVSNRFSGVPDRFSGSGSGTDFTLKISRVEAEDVGVYYCFQGSHVPGTFGQGTKLEIK : 1 (yes)
